biological target: hAhR (Homo sapiens); construct: Stably integrated DRE-luciferase cell lines were generated by transducing the both cell lines with Cignal XRE luciferase reporter (Qiagen) lentiviral particles; endogenous in cells; assay: AhR DRE-luciferase reporter transcriptional assay, antagonist mode (TCDD-induced); format: cell-based; details: HEPG2 DRE-Luc cells, 3 nM TCDD, 24 hour incubation, relative IC50
pIC50: −log10 of the molar value.
readout kind: pIC50

| compound | readout value |
| --- | --- |
| Cc1cc(-c2ccc3ccccc3n2)ccc1NC(=O)c1ccnn1C [Example 070] | 6.00 to 6.30 |
| Cc1c(NC(=O)c2ccnn2C)ccc(-c2ncc3nc(C(F)(F)F)cc(C)c3n2)c1F [Example 174] | > 6.70 |
| Cc1cc(C(F)(F)F)nc2cnc(-c3ccc(N(C)C(=O)c4ccnn4C)c(F)c3)nc12 [Example 162] | > 6.70 |
| Cn1nccc1C(=O)Nc1ccc(-c2ncc3nc(C(F)(F)F)ccc3n2)cc1F [Example 137] | > 6.70 |
| CN(C(=O)c1ccnn1C)c1ccc(-c2ncc3cc(C(F)(F)F)ccc3n2)cc1 [Example 218] | > 6.70 |
| Cc1cc(C(=O)N(C)c2ccc(-c3ncc4nc(OC(F)(F)F)cc(C)c4n3)cc2C)ccn1 [Example 161] | 6.30 to 6.70 |
| Cc1cc(-c2ncc3cc(C(F)(F)F)ccc3n2)ccc1NC(=O)c1ccnn1C [Example 112] | > 6.70 |
| Cc1cc(-c2ncc3cc(C(F)(F)F)cc(C)c3n2)ccc1NC(=O)c1ccnn1C [Example 110] | > 6.70 |
| Cn1nccc1C(=O)Nc1ccc(-c2ccc3cc(F)ccc3n2)cc1C(F)(F)F [Example 048] | 5.00 to 6.00 |
| Cc1cc(-c2ncc3nc(C(F)(F)F)cc(C)c3n2)ccc1NC(=O)c1ccnn1C [Example 147] | > 6.70 |
| Cc1cc(-c2ccc3nc(C(F)(F)F)ccc3n2)ccc1N(C)C(=O)c1ccnn1CCO [Example 210] | > 6.70 |
| Cc1cc(C(F)(F)F)nc2cnc(-c3ccc(NC(=O)C4CCOCC4)c(F)c3)nc12 [Example 186] | 5.00 to 6.00 |

----------
Target: hAhR (Homo sapiens, UniProt P35869)
Construct: Stably integrated DRE-luciferase cell lines were generated by transducing the both cell lines with Cignal XRE luciferase reporter (Qiagen) lentiviral particles; endogenous in cells
Sequence (P35869 11-848): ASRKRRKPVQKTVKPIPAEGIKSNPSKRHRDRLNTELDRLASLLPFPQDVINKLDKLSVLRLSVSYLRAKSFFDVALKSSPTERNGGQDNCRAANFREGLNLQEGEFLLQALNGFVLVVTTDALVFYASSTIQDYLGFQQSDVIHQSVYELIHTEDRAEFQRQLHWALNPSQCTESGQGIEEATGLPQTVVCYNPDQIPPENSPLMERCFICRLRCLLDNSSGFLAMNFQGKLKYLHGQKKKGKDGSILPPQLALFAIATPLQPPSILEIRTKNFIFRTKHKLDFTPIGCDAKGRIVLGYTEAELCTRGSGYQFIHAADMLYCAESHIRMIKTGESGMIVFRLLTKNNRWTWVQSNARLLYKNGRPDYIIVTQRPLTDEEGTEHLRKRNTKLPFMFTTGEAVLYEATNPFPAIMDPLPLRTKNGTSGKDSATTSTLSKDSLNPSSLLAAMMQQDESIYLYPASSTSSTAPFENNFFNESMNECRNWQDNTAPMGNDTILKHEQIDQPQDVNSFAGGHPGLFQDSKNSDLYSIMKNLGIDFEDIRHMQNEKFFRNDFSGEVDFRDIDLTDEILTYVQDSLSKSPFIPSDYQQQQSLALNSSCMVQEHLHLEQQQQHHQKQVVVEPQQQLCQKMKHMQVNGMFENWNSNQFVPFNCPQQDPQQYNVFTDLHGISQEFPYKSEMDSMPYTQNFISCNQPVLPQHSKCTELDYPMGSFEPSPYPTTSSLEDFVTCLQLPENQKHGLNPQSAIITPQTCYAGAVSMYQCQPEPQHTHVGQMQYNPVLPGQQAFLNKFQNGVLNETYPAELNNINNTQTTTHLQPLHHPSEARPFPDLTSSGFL
Experiment: AhR DRE-luciferase reporter transcriptional assay, antagonist mode (TCDD-induced)
Conditions: HEPG2 DRE-Luc cells, 3 nM TCDD, 24 hour incubation, relative IC50
Procedure: HEPG2 and HEPA1C1C7 cells were maintained in MEM and αMEM without nucleosides supplemented with 10% heat inactivated FBS respectively. […] Firefly luciferase activity was measured immediately following the addition of 50 μL Luciferase Assay Reagent (Promega). The percent maximal activity for each point was determined using the following equasion: (RLUsample-RLUvehicle−TCDD)/(RLUvehicle+TCDD RLUvehicle−TCDD)*100. […]
pIC50: −log10 of the molar value.

| compound | pIC50 |
| --- | --- |
| Cc1cc(-c2ncc3cc(C(F)(F)F)ccc3n2)ccc1NC(=O)c1ncncc1C [Example 123] | 6.00 to 6.30 |
| Cn1nccc1C(=O)Nc1ccc(-c2ncc3cc(C(F)(F)F)ccc3n2)cc1 [Example 220] | 5.00 to 6.00 |
| Cc1cc(-c2ncc3cc(F)ccc3n2)ccc1NC(=O)c1ccnn1C [Example 107] | > 6.70 |
| Cc1cc(-c2ccc3cc(C(F)(F)F)ccc3n2)cc(F)c1NC(=O)c1ccnn1C [Example 008] | > 6.70 |
| Cc1cc(-c2ccc3nc(C(F)(F)F)cc(C)c3n2)ccc1NC(=O)c1ccnn1C [Example 105] | > 6.70 |
| Cc1cc(-c2ccc3cc(F)cc(C)c3n2)ccc1NC(=O)c1ccnn1C [Example 052] | > 6.70 |
| Cc1c(-c2ncc3cc(C(F)(F)F)ccc3n2)ccc(NC(=O)c2ccnn2C)c1F [Example 113] | 6.30 to 6.70 |
| Cc1cc(-c2ncc3cc(C(F)(F)F)ccc3n2)ccc1N(C)C(=O)c1cnn[nH]1 [Example 146] | 5.00 to 6.00 |
| Cc1cc(-c2ccc3cc(-c4nnn[nH]4)ccc3n2)ccc1NC(=O)c1ccnn1C [Example 063] | 5.00 to 6.00 |
| Cc1cc(-c2ccc3c(ccn3CC(F)(F)F)c2)ccc1NC(=O)c1ccnn1C [Example 088] | 5.00 to 6.00 |
| COC(=O)N(C)c1ccc(-c2ncc3cc(C(F)(F)F)ccc3n2)cc1C [Example 128] | > 6.70 |
| Cc1cc(-c2nc3cc(C(F)(F)F)ccc3s2)ccc1NC(=O)c1ccnn1C [Example 100] | 6.30 to 6.70 |
| Cc1cc(-c2ccc3ccc(C(F)(F)F)cc3n2)ccc1NC(=O)c1ccnn1C [Example 078] | 6.30 to 6.70 |
| CNC(=O)c1cc(C(=O)Nc2ccc(-c3ncc4nc(C(F)(F)F)cc(C)c4n3)cc2C)ccn1 [Example 167] | > 6.70 |
| Cc1cc(-c2ccc3cc(F)cc(C#N)c3n2)ccc1NC(=O)c1ccnn1C [Example 054] | 6.30 to 6.70 |
